Reported Ki against NS3 (Hepatitis C virus), gathered from multiple publications, appears below.

compound	result
CC(C)(C)OC(=O)N[C@H](C(=O)N1C[C@H]2[C@@H]([C@H]1C(=O)NC(CC1CCCCC1)C(=O)C(N)=O)C2(C)C)C1CCCCC1 (stereo partly drawn)	> 12 µM
C=CCOC(=O)CNC(=O)C(=O)C(CCC)NC(=O)[C@@H]1CN(Cc2ccccc2)C(=O)N1C(=O)[C@@H](NC(=O)[C@@H](NC(=O)[C@H](CCC(=O)OC(C)(C)C)NC(=O)[C@H](CCC(=O)OC(C)(C)C)NC(C)=O)C(C)C)C(C)C (stereo partly drawn)	> 100 µM

Now for another entry.
Provide one value: measured Ki of CCOC(=O)C(F)(F)C(=O)C(CC)NC(=O)C1CC(OCc2ccccc2)CN1C(=O)[C@H](NC(=O)[C@H](NC(=O)c1cnccn1)C(C)C)C(C)C (single isomer, unassigned)
> 50 µM
